The reported measurements were obtained from patent US20220340894A1.

Experimental target: T1, HLA-A2/MAGE-A4 complex (HLA-A*02:01 extracellular domain, human β2m, MAGE-A4 peptide 230-239) (human, UniProt P04439 25-299 at identity 0.94); P61769 21-119)
T1 construct: also called MAGE-A4/HLA-A2 complex; pMHC
Experimental details: phage display biopanning and screening of the lambda and optimized kappa libraries

Binder	binding result
M0851 scFv (scFv, Rabbit scFv from the biopanning screen) scFv: QEQLEESGGGLVTPGTPLTLTCTASGFSLSSYAMIWVRQAPGKGLEWIGTINDGGTAFYASWVKGRFTISRTSTTVDLKITSPTTEDTATYFCARAYGSNGDVYWGYVNLWGQGTLVTISSGGGGSGGGGSGGGGSGGGGASELVMTQTPSSVSAAVGGTVTINCQASQNIGSVFAWYQQKPGQPPKLLIYKASSLASGVPSRFKGSGSGTQFTLTISGVEAADAATYYCQQGASSSNVDNIFGGGTEVVVK	binds
M0850 scFv (scFv, Rabbit scFv from the biopanning screen) scFv: QEQLEESGGGLVTPGTPLTLTCTASGFSLSSYAMIWVRQAPGKGLEWIGTINDGGTAFYANWVKGRFTISRTSTTVDLKMTSPTTEDTATYFCARAYGSNGDVYWGYVNLWGQGTLVTVSSGGGGSGGGGSGGGGSGGGGASELVMTQTPASVSEPVGGTVTIKCQASQSIGSNLAWYQQKPGQPPKLLIYAAANLASGVSSRFKGSRSGTEYTLTISGVQAADAATYYCQQGYSSSNVANVFGGGTELEIL	binds
M0852 scFv (scFv, Rabbit scFv from the biopanning screen) scFv: QQQLEESGGGLVTPGTPLTLTCTVSGFSLSNYAMGWVRQAPGKGLEWIGTINDGGTAFYANWLKGRFTISRTSTTVDLKITSPTTEDTATYFCARAYGSNGDVYWGYFNLWGQGTLVTVSSGGGGSGGGGSGGGGSGGGGASELVMTQTASPVSAAVGGTVTINCQASQSISSRSLSWYQQKPGQPPKLLIYEASKLASGVPSRFSGSGSGTQFTLTISGVQADDAATYYCQQGYSSSNVDNVFGGGTEVVVK	binds
